- System: U2932 cells
- procedure_text: Real Time Glo viability assay, Betalutin and cell cycle inhibitors (Example 2)
- Type: cell-based, human
- experimental_parameters: Homo sapiens, U2932, U2932, drug 1 μM, (+)Betalutin, Dy6; read-out: Growth inhibition (signal treated/control; 1 = no change)

molecule: Cc1csc(-c2nnc(Nc3ccc(Oc4ncccc4-c4ccnc(N)n4)cc3)c3ccccc23)c1
viability at 1 µM / %: 58
--
molecule: Cc1nc(N)sc1-c1ccnc(Nc2ccc(N3CCOCC3)cc2)n1
viability at 1 µM / %: 56
--
molecule: C=CCn1c(=O)c2cnc(Nc3ccc(N4CCN(C)CC4)cc3)nc2n1-c1cccc(C(C)(C)O)n1
viability at 1 µM / %: 80
--
molecule: Nc1nc(Nc2ccc(S(N)(=O)=O)cc2)nn1C(=O)c1c(F)cccc1F
viability at 1 µM / %: 11
